# STUDY_SYSTEM: ABL^T315I (Homo sapiens, UniProt P00519, T315I)
# TEST_DETAILS: Hot Spot kinase assay, ABL T315I
# Assay type: biochemical
# SETUP_CONDITIONS: ATP 10 μM, 25° C., 120 minutes
EXPERIMENTAL_ENDPOINT: IC50 (nM)
Provide the reading as a plain figure in nM.

Under ABL^T315I (Homo sapiens, UniProt P00519, T315I): report IC50 of "Cc1cn(-c2cc(C(=O)Nc3cccc(C#Cc4cccc5[nH]nc(N)c45)c3)cc(C(F)(F)F)c2)cn1" . 1290

Under ABL^T315I (Homo sapiens, UniProt P00519, T315I): report IC50 of "Nc1n[nH]c2cccc(C#Cc3cccc(C(=O)Nc4ccc(CN5CCOCC5)c(C(F)(F)F)c4)c3)c12" . 1360

Under ABL^T315I (Homo sapiens, UniProt P00519, T315I): report IC50 of "Nc1n[nH]c2cccc(C#Cc3cccc(NC(=O)c4cccc(C(F)(F)F)c4)c3)c12" . 2550

Under ABL^T315I (Homo sapiens, UniProt P00519, T315I): report IC50 of "Cc1cn(-c2cc(NC(=O)c3cccc(C#Cc4cccc5[nH]nc(N)c45)c3)cc(C(F)(F)F)c2)cn1" . 1060

Under ABL^T315I (Homo sapiens, UniProt P00519, T315I): report IC50 of "Cc1ccc(C(=O)Nc2cccc(C#Cc3cccc4[nH]nc(N)c34)c2)cc1C(F)(F)F" . 2960

Under ABL^T315I (Homo sapiens, UniProt P00519, T315I): report IC50 of "CCN1CCN(Cc2ccc(NC(=O)c3cccc(C#Cc4cccc5[nH]nc(N)c45)c3)cc2C(F)(F)F)CC1" . 5.82

Under ABL^T315I (Homo sapiens, UniProt P00519, T315I): report IC50 of "Nc1n[nH]c2cccc(C#Cc3cccc(NC(=O)c4ccc(N5CCOCC5)c(C(F)(F)F)c4)c3)c12" . 183

Under ABL^T315I (Homo sapiens, UniProt P00519, T315I): report IC50 of "CN1CCN(Cc2cc(NC(=O)c3cccc(C#Cc4cccc5[nH]nc(N)c45)c3)cc(C(F)(F)F)c2)CC1" . 1150
